Consider the following molecules and their measured MIC readings.
test system: E. coli ATCC 25922; test: MIC, twofold microdilution, standard strain; type: cell-based, Escherichia coli; conditions: Escherichia coli, ATCC25922; 18 h of treatment; read-out: MIC E. coli ATCC 25922
# unit: µg/mL | format: bare number

Molecule	Unit of measure	MIC
CC/C=C\C/C=C\C/C=C\C/C=C\C/C=C\C/C=C\CCC(=O)N1CCCC2CN(c3c(F)cc4c(=O)c(C(=O)O)cn(C5CC5)c4c3OC)CC21 (stereo not drawn) [Compound 8m]	µg/mL	2
CCCCCCCC/C=C\CCCCCCCCCCCC(=O)N1CCCC2CN(c3c(F)cc4c(=O)c(C(=O)O)cn(C5CC5)c4c3OC)CC21 (stereo not drawn) [Compound 7m]	µg/mL	256

QUERY: Any idea what MIC was measured for C/C=C/C=C/C(=O)N1CCCC2CN(c3c(F)cc4c(=O)c(C(=O)O)cn(C5CC5)c4c3OC)CC21 (stereo not drawn) [Compound 2m] ?
RESULT: 64
